# ASSAY_COMMENT: Antioxidant activity assessed as inhibition of singlet oxygen-induced oxidation of DHR by rhodamine 123 staining
# Assay type: functional
# EXPERIMENTAL_CONDITIONS: read-out: IC50
Threshold 1000 µM. IC50 below it: fulfilled. IC50 at it or above: not fulfilled.

compound=COC(=O)[C@H](Cc1c[nH]c2ccccc12)NC(C)=O class_name="not fulfilled"
compound="CC(C)=CCn1cc(CC(N)C(=O)O)c2ccccc21 (stereo not given)" class_name=fulfilled
compound="COC(=O)[C@@H](N)Cc1c[nH]c2ccccc12 [TRYPTOPHAN METHYL ESTER]" class_name="not fulfilled"
compound="COC(=O)C(Cc1cn(CC=C(C)C)c2ccccc12)N1C(=O)c2ccccc2C1=O (stereo not given)" class_name="not fulfilled"
compound="NCCc1c[nH]c2ccccc12 [TRYPTAMINE]" class_name=fulfilled
compound="COC(=O)C(Cc1c(CCC(C)C)[nH]c2ccccc12)N1C(=O)c2ccccc2C1=O (stereo not given)" class_name=fulfilled
compound="COC(=O)C(Cc1c(CC=C(C)C)[nH]c2ccccc12)N1C(=O)c2ccccc2C1=O (stereo not given)" class_name="not fulfilled"
